Just for reference, patent USRE40086E1 is where these values come from.

This listing pairs molecules with measured MIC.
- Test system: E. coli UBMS 89-2 (Sensitive)
- Protocol text: MIC, agar dilution
- Assay type: cell-based
- Details: E. coli UBMS 89-2 (Sensitive)
Metric name: MIC

Molecule	Target or system	Metric name	Recorded value
CN(C)c1cc(NC(=O)COCc2ccccc2)c(O)c2c1CC1CC3C(N(C)C)C(O)=C(C(N)=O)C(=O)C3(O)C(O)=C1C2=O (centres unmarked)	E. coli UBMS 89-2 (Sensitive)	MIC	>32 µg/mL
COc1ccc(C(=O)Nc2cc(N(C)C)c3c(c2O)C(=O)C2=C(O)C4(O)C(=O)C(C(N)=O)=C(O)C(N(C)C)C4CC2C3)cc1 (centres unmarked)	E. coli UBMS 89-2 (Sensitive)	MIC	>32 µg/mL
CN(C)c1cc(NC(=O)c2ccc(N)cc2)c(O)c2c1CC1CC3C(N(C)C)C(O)=C(C(N)=O)C(=O)C3(O)C(O)=C1C2=O.O=S(=O)(O)O (centres unmarked)	E. coli UBMS 89-2 (Sensitive)	MIC	>32 µg/mL
CN(C)c1cc(NC(=O)c2cccs2)c(O)c2c1CC1CC3C(N(C)C)C(O)=C(C(N)=O)C(=O)C3(O)C(O)=C1C2=O (centres unmarked)	E. coli UBMS 89-2 (Sensitive)	MIC	>32 µg/mL
Cc1ccccc1C(=O)Nc1cc(N(C)C)c2c(c1O)C(=O)C1=C(O)C3(O)C(=O)C(C(N)=O)=C(O)C(N(C)C)C3CC1C2 (centres unmarked)	E. coli UBMS 89-2 (Sensitive)	MIC	>32 µg/mL
CN(C)c1cc(NC(=O)c2ccccc2F)c(O)c2c1CC1CC3C(N(C)C)C(O)=C(C(N)=O)C(=O)C3(O)C(O)=C1C2=O (centres unmarked)	E. coli UBMS 89-2 (Sensitive)	MIC	>32 µg/mL
CCN(CC)c1cc(NC(C)=O)c(O)c2c1C[C@H]1C[C@H]3[C@H](N(C)C)C(O)=C(C(N)=O)C(=O)[C@@]3(O)C(O)=C1C2=O.O=S(=O)(O)O.O=S(=O)(O)O	E. coli UBMS 89-2 (Sensitive)	MIC	>32 µg/mL
